TARGET_ENTITY: 5'-nucleotidase (Homo sapiens) (UniProt P21589)
Sequence (P21589 whole entry): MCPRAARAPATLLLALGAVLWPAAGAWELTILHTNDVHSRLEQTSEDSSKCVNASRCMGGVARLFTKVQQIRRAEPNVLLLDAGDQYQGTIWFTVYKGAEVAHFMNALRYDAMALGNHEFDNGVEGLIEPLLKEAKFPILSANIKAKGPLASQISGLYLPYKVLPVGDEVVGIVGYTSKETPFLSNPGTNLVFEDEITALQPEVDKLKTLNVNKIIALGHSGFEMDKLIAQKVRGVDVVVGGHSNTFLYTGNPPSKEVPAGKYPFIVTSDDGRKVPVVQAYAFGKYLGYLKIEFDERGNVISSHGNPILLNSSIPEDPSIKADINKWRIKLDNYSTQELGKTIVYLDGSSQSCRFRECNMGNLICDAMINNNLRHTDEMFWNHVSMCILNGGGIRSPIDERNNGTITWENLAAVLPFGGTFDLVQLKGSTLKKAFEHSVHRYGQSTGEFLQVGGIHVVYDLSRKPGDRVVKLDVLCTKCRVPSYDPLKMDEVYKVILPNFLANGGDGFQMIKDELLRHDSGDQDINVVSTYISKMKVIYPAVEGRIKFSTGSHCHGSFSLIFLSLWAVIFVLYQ
PROTOCOL_TEXT: Inhibition of recombinant cN-II (unknown origin) assessed as reduction in inorganic phosphate production at 200 uM pre-incubated for 10 mins followed by addition of IMP as substrate and measured after 5 mins by malachite green based assay relative to control
Some compounds, each annotated with its measured inhibition.

SMILES_STR: O=C(Nc1ncnc2ncn(Cc3ccccc3)c12)c1cccc(-c2ccccc2)c1
U: %
inhibition: 52
--
SMILES_STR: CCOP(=O)(Cn1cnc2c(NC(=O)c3cccc(-c4ccccc4)c3)ncnc21)OCC
U: %
inhibition: 47
--
SMILES_STR: O=C(Nc1ncnc2[nH]cnc12)c1cccc(-c2ccccc2-c2nn[nH]n2)c1
U: %
inhibition: 27
--
SMILES_STR: CCOC(=O)Cn1cnc2c(NC(=O)c3ccc(-c4ccccc4-c4nn[nH]n4)cc3)ncnc21
U: %
inhibition: 27
--
SMILES_STR: CCOC(=O)Cn1cnc2c(NC(=O)c3cccc(-c4ccccc4)c3)ncnc21
U: %
inhibition: 60
--
SMILES_STR: O=C(Nc1ncnc2c1ncn2Cc1ccccc1)c1cccc(-c2ccccc2)c1
U: %
inhibition: 57
--
SMILES_STR: CCOP(=O)(O)Cn1cnc(-c2cccc(-c3cccc(C(=O)Nc4ncnc5ncn(COCc6ccccc6)c45)c3)c2)c1
U: %
inhibition: 60
--
SMILES_STR: CCOP(=O)(O)Cn1cnc(-c2cccc(-c3cccc(C(=O)Nc4ncnc5nc[nH]c45)c3)c2)c1
U: %
inhibition: 75
--
SMILES_STR: O=C(Nc1ncnc2nc[nH]c12)c1cccc(-c2cccc(-c3cn(CP(=O)(O)O)cn3)c2)c1
U: %
inhibition: 49
--
SMILES_STR: O=C(Nc1ncnc2ncn(COCc3ccccc3)c12)c1cccc(-c2ccccc2)c1
U: %
inhibition: 50
--
SMILES_STR: O=C(O)Cn1cnc2c(NC(=O)c3cccc(-c4ccccc4)c3)ncnc21
U: %
inhibition: 62
--
SMILES_STR: O=C(Nc1ncnc2[nH]cnc12)c1cccc(-c2cccc(-c3nn[nH]n3)c2)c1
U: %
inhibition: 50
--
SMILES_STR: O=C(Nc1ncnc2c1ncn2CCO)c1cccc(-c2ccccc2)c1
U: %
inhibition: 46
--
SMILES_STR: O=C(Nc1ncnc2[nH]cnc12)c1ccc(-c2ccccc2-c2nn[nH]n2)cc1
U: %
inhibition: 10
--
SMILES_STR: CC(=O)OCCn1cnc2c(NC(=O)c3cccc(-c4ccccc4)c3)ncnc21
U: %
inhibition: 62
--
SMILES_STR: CCOC(=O)Cn1cnc2c(N)ncnc21
U: %
inhibition: 3
--
SMILES_STR: O=C(Nc1ncnc2[nH]cnc12)c1cccc(-c2ccccc2)c1
U: %
inhibition: 68
--
SMILES_STR: O=C(Nc1ncnc2c1ncn2COCc1ccccc1)c1cccc(-c2ccccc2)c1
U: %
inhibition: 34
--
SMILES_STR: O=C(Nc1ncnc2[nH]cnc12)c1cccc(-c2ccc(-c3nn[nH]n3)cc2)c1
U: %
inhibition: 60
--
SMILES_STR: O=C(Nc1ncnc2[nH]cnc12)c1ccccc1-c1ccc(-c2nn[nH]n2)cc1
U: %
inhibition: 30
